Values from PubChem BioAssay AID1159580

- procedure-summary: chemical genetic growth profiling, strain panel (AID 1159580);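 also: tested at 20 µM; growth read once vehicle control cultures reached saturation at 30 °C; 1 = growth at the plate median or of vehicle wells; lower values mean less growth of the strain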
- applied-conditions: S. cerevisiae deletion strains, growth OD, locus YLR384C, strain iki3, hits give low values
The campaign covered roughly 5,500 compounds. About 2,000 (36%) were called active. Not shown: some 18% with an inconclusive outcome. This is one part of the list.

{"compound": "CC(N)CCCC(C)(C)O (stereo not given)", "normalized growth": 0.985}
{"compound": "C[N+](C)(C)CCOC(N)=O", "normalized growth": 1.04}
{"compound": "CC1=C(C(C)O)C2=NC1C=c1[nH]c(c(C)c1C(C)O)=Cc1[nH]c(c(CCC(=O)O)c1C)C=c1[nH]c(c(C)c1CCC(=O)O)=C2 (stereo not given)", "normalized growth": 0.99}
{"compound": "COc1ccc2cc([C@H](C)C(=O)O)ccc2c1", "normalized growth": 0.976}
{"compound": "CC(C[N+](C)(C)C)OC(N)=O (stereo not given)", "normalized growth": 1.03}
{"compound": "CCOC(=O)C(Cc1ccc(O)cc1)NC(C)=O (stereo not given)", "normalized growth": 1}
{"compound": "CC1CC2C3CCC4=CC(=O)C=C[C@]4(C)[C@@]3(F)[C@@H](O)C[C@]2(C)[C@@]1(O)C(=O)CO (stereo not given in full)", "normalized growth": 1.01}
{"compound": "COC1=CC(=O)C[C@@H](C)[C@]12Oc1c(Cl)c(OC)cc(OC)c1C2=O", "normalized growth": 0.993}
{"compound": "COc1ccc2cc([C@H](C)CO)ccc2c1", "normalized growth": 1.01}
{"compound": "CN1CCCN=C1COC(=O)C(O)(c1ccccc1)C1CCCCC1 (stereo not given)", "normalized growth": 0.982}
{"compound": "CC(CCc1ccccc1)NC(C)C(O)c1ccc(O)cc1 (stereo not given)", "normalized growth": 1.01}
{"compound": "CC(NCCc1ccc(O)cc1)C(O)c1ccc(O)cc1 (stereo not given)", "normalized growth": 0.975}
{"compound": "CC(C(=O)O)c1cccc(C(=O)c2ccccc2)c1 (stereo not given)", "normalized growth": 0.963}
{"compound": "CN(C)C(=S)SSC(=S)N(C)C", "normalized growth": 0.0593}
{"compound": "COc1cc(NS(=O)(=O)c2ccc(N)cc2)nc(OC)n1", "normalized growth": 0.97}
{"compound": "COc1ccc(OC)c(C(O)C(C)N)c1 (stereo not given)", "normalized growth": 0.987}
{"compound": "CCCCCCNC(=O)n1cc(F)c(=O)[nH]c1=O", "normalized growth": 0.963}
{"compound": "c1ccc(N=Nc2ccccc2)cc1", "normalized growth": 0.973}
{"compound": "Cc1[nH]c(C)c(Cl)c(=O)c1Cl", "normalized growth": 0.995}
{"compound": "CC(C)(O)[C@@H]1[C@H]2OC(=O)[C@@H]1[C@]1(O)C[C@H]3O[C@]34C(=O)O[C@H]2[C@]14C", "normalized growth": 0.994}
{"compound": "CNC(C)[C@H](O)c1ccccc1 (stereo not given in full)", "normalized growth": 0.995}
{"compound": "CCOC(=O)C(C)(C)Oc1ccc(Cl)cc1", "normalized growth": 0.969}
{"compound": "CC(C)OC(=O)C(C)(C)Oc1ccc(C(=O)c2ccc(Cl)cc2)cc1", "normalized growth": 0.971}
{"compound": "CCCCCCCCNC(C)C(O)c1ccc(SC(C)C)cc1 (stereo not given)", "normalized growth": 0.0596}
{"compound": "CN(C)c1ccc(C(=C2C=CC(=[N+](C)C)C=C2)c2ccc(N(C)C)cc2)cc1", "normalized growth": 0.486}
